tested.on: HLA-DRB1*01:01 (Homo sapiens, UniProt P01903+P01911, A100R/D57E/F55L/F60I/F76Y/I96L/L162R/M171V/P40L/Q125E/R42F/V115G/Y59C)
Construct: EBV transformed homozygous cell lines were used as sources of MHC molecules; endogenous in cells; host or cells: EBV transformed homozygous cell lines
procedure.text: HLA class II peptide binding, inhibition of radiolabeled peptide binding to purified MHC
test.parameters: citrullinated 15-mer (X); purified MHC, inhibition of radiolabeled peptide binding; dash = IC50 >40,000 nM; read-out: DRB1*01:01 binding capacity, Cit peptide (IC50 nM)
Square brackets hold non-standard residues; d marks the D form. Peptide text beside a SMILES is read from it. Cit = NC(=O)NCCC[C@H](N)C(=O)O
Could you please report measured IC50 for the items listed next?
Give the value in nM but do not write nM after it.

According to the records, this compound CC(C)C[C@H](NC(=O)[C@H](CC(C)C)NC(=O)[C@H](CCCNC(=N)N)NC(=O)[C@@H](NC(=O)CNC(=O)[C@@H]1CCCN1C(=O)[C@@H](NC(=O)[C@H](CO)NC(=O)[C@H](CO)NC(=O)[C@H](CCCNC(=N)N)NC(=O)[C@H](CC(C)C)NC(=O)[C@H](CCCNC(N)=O)NC(=O)[C@@H](NC(=O)[C@H](C)NC(=O)[C@@H](N)CO)C(C)C)C(C)C)C(C)C)C(=O)O [SAVXLRSSVPGVRLL] (H-SAV[Cit]LRSSVPGVRLL-OH) displays IC50 of 19

Entry CC[C@H](C)[C@H](NC(=O)[C@H](Cc1ccc(O)cc1)NC(=O)[C@H](CC(N)=O)NC(=O)[C@H](C)NC(=O)[C@H](Cc1ccccc1)NC(=O)[C@H](CCCNC(N)=O)NC(=O)[C@H](CC(=O)O)NC(=O)[C@@H](N)CC(N)=O)C(=O)N[C@@H](CC(=O)O)C(=O)N[C@@H](CCCCN)C(=O)N[C@H](C(=O)N[C@@H](CCCNC(=N)N)C(=O)N[C@@H](Cc1ccccc1)C(=O)N[C@@H](CC(C)C)C(=O)N[C@@H](CCC(=O)O)C(=O)O)C(C)C [NDXFANYIDKVRFLE] (H-ND[Cit]FANYIDKVRFLE-OH) ; IC50 = 816

###

tested.on: HLA-DRB1*04:01 (Homo sapiens, UniProt P01903+P01911, A100K/A169T/F76Y/I96L/K127E/L162R/M171V/N62H/P40V/Q125Y/R42H/S133A/S149N/S66Y/V115G/V209L/W38E)
Construct: EBV transformed homozygous cell lines were used as sources of MHC molecules; endogenous in cells; host or cells: EBV transformed homozygous cell lines
procedure.text: HLA class II peptide binding, inhibition of radiolabeled peptide binding to purified MHC
test.parameters: wild-type (unmodified Arg) 15-mer peptide; purified HLA-DRB1*04:01; read-out: DRB1*04:01 binding capacity, WT peptide (IC50 nM)
Ends that are not written are not given here.
Mark YES for IC50 under 10000 nM, NO if at or over.

Prompt: A record lists DRGDVGEKGPEGAPG [Collagen 766 WT] . Is its IC50 below 10000 nM?
Response: NO

Prompt: Determine if LPGARGLTGRPGDAG [Collagen 556 WT] shows IC50 strictly lower than 10000 nM.
Response: NO

Prompt: Does the reported IC50 of the following sequence sit strictly below 10000 nM? TIGRLQDEIQNMKEE [Vimentin 361 WT]
Response: NO

Prompt: Quick check: does ANYQDTIGRLQDEIQ [Vimentin 356 WT] have IC50 under 10000 nM?
Response: NO

Prompt: Confirm or reject: IC50 of GDRGEAGAQGPMGPS [Collagen 1086 WT] lies strictly below 10000 nM
Response: NO

Prompt: Take the sequence TNLDSLPLVDTHSKR [Vimentin 426 WT] and say whether its IC50 is less than 10000 nM.
Response: NO

Prompt: For this sequence, is IC50 lower than 10000 nM? GAEGPPGPQGLAGQR [Collagen 966 WT]
Response: NO

Prompt: Answer whether the sequence VLLTLLVAAVLRCQG [Collagen 11 WT] has IC50 strictly less than 10000 nM
Response: NO

Prompt: Does the reported IC50 of the following sequence sit strictly below 10000 nM? GPRGERGFPGERGSP [Collagen 696 WT]
Response: NO

Prompt: Bench note: check whether PGIDMSAFAGLGPRE [Collagen 1216 WT] shows IC50 below 10000 nM
Response: NO

Prompt: For this sequence, is IC50 lower than 10000 nM? ERGRTGPAGAAGARG [Collagen 331 WT]
Response: NO

Prompt: IC50 under 10000 nM? Item: STEYRRQVQSLTCEV [Vimentin 316 WT]
Response: YES

Prompt: Please let me know if GHRGFTGLQGLPGPP [Collagen 1131 WT] shows IC50 below 10000 nM.
Response: YES
